- Assay target: Arginase-2, mitochondrial (Homo sapiens) (UniProt P78540)
- Sequence (P78540 whole entry): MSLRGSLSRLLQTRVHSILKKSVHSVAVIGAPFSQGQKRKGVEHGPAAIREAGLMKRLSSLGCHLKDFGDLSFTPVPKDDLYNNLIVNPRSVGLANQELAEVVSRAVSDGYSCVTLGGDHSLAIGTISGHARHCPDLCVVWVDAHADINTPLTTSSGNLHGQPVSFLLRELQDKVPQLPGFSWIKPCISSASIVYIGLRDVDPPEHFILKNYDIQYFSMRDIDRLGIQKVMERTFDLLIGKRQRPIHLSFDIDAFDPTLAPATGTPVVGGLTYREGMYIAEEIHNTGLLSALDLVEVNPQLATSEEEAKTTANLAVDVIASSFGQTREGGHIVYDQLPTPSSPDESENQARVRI
- Assay text: in vitro enzyme assay to detect the production of urea directly proportional to the activity of Arginase II
- Type: functional
- Design: scale not given: in the data most compounds retested in dose-response had high values
- Experimental conditions: 33.3 µM
Readout label: Percent Effect (%)
Write the number in % without appending the unit.

In the examples that follow, each entry is paired with its recorded Percent Effect.
Molecule	Percent Effect, %
COc1cc(CN2CCN(c3cccc(OC)c3)C(=O)C2)cc(OC)c1	-4.42
CN(C)CCn1c(=O)oc2ccc(NC(=O)CC(C)(C)C)cc21	14.1
O=C(c1c[nH]c(=O)c(Cl)c1)N1C[C@@H]2CC[C@H](C1)N(Cc1ccccc1)C2	-8.78

Please find the next molecule below.
Incoming: Please report Percent Effect for the following molecule: Cc1cnccc1CN1C[C@@H](O)[C@H](Oc2cccc(F)c2)C1
Outgoing: 0.696
